Numbers sourced from PubChem BioAssay AID623966.

Measured Target: Single-stranded DNA-binding protein (Escherichia coli (strain K12)) (UniProt P0AGE0)
Sequence (P0AGE0 whole entry, looked up): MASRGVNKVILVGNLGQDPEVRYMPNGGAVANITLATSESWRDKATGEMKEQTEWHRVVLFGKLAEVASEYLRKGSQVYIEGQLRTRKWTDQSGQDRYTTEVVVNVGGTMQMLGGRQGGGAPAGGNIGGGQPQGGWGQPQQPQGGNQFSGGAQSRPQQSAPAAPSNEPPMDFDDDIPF
Test Summary: displacement of E. coli SSB from DNA, late-stage follow-up, selectivity assay for HCV NS3 helicase inhibitor project, biochemical, fluorescence polarization (AID 623966)
Assay Setup: E. coli SSB / Cy5-dT15 DNA
Calls of active or inactive are those of the source.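 Rule for the calls: active = compounds that push a bacterial single-strand DNA binding protein off labeled DNA, with IC50 up to 50 micromolar; inactive = the rest.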
Give your call using only these classes: active, inactive

Below, 10 compounds whose answers are already recorded.
Line Notation: Cc1ccc2nc(-c3ccc(NC(=O)c4ccc(NC(=O)c5ccc(C(F)(F)F)cc5)cc4)cc3)sc2c1S(=O)(=O)O
Qualitative Label: active
//
Line Notation: Cc1ccc2nc(-c3ccc4nc(-c5ccc(NC(=O)c6ccc(C(F)(F)F)c(F)c6)cc5)sc4c3)sc2c1S(=O)(=O)O
Qualitative Label: active
//
Line Notation: Cc1ccc2nc(-c3ccc4nc(-c5ccc(NC(=O)c6ccc7nc(-c8ccc(N)cc8)sc7c6)cc5)sc4c3)sc2c1S(=O)(=O)O
Qualitative Label: active
//
Line Notation: COc1ccc(C(=O)Nc2ccc(-c3nc4ccc(-c5nc6ccc(C)c(S(=O)(=O)O)c6s5)cc4s3)cc2)cc1
Qualitative Label: active
//
Line Notation: Cc1ccc2nc(-c3ccc4nc(-c5ccc(NC(=O)Nc6ccc(C(F)(F)F)cc6)cc5)sc4c3)sc2c1S(=O)(=O)O
Qualitative Label: active
//
Line Notation: Cc1ccc2nc(-c3ccc4nc(-c5ccc(NC(=O)Nc6ccccc6)cc5)sc4c3)sc2c1S(=O)(=O)O
Qualitative Label: active
//
Line Notation: COc1ccc(NC(=O)Nc2ccc(-c3nc4ccc(-c5nc6ccc(C)c(S(=O)(=O)O)c6s5)cc4s3)cc2)cc1
Qualitative Label: active
//
Line Notation: Cc1ccc2nc(-c3ccc4nc(-c5ccc(NCc6ccccc6)cc5)sc4c3)sc2c1S(=O)(=O)O
Qualitative Label: active
//
Line Notation: Cc1ccc2nc(-c3ccc4nc(-c5ccc(NC(=O)c6cccc(C(F)(F)F)c6)cc5)sc4c3)sc2c1S(=O)(=O)O
Qualitative Label: inactive
//
Line Notation: Cc1ccc2nc(-c3ccc4nc(-c5ccc(NC(=O)c6ccncc6)cc5)sc4c3)sc2c1S(=O)(=O)O
Qualitative Label: inactive

Check the results log: what was the call for Cc1ccc2nc(-c3ccc(NC(=O)c4ccc(NC(=O)Nc5ccccc5)cc4)cc3)sc2c1S(=O)(=O)O ?
active

Check the results log: what was the call for Cc1ccc2nc(-c3ccc4nc(-c5ccc(NC(=O)c6ccc(N)cc6)cc5)sc4c3)sc2c1S(=O)(=O)O ?
active

Check the results log: what was the call for Cc1ccc2nc(-c3ccc4nc(-c5ccc(NC(=O)c6cc(C(F)(F)F)cc(C(F)(F)F)c6)cc5)sc4c3)sc2c1S(=O)(=O)O ?
active

Check the results log: what was the call for Cc1ccc2nc(-c3ccc4nc(-c5ccc(NC(=O)Nc6ccc(Cl)cc6)cc5)sc4c3)sc2c1S(=O)(=O)O ?
active

Check the results log: what was the call for Cc1ccc2nc(-c3ccc4nc(-c5ccc(NC(=O)c6cccc(Cl)c6)cc5)sc4c3)sc2c1S(=O)(=O)O ?
inactive

Check the results log: what was the call for Cc1ccc2nc(-c3ccc(NC(=O)c4ccc(NS(=O)(=O)c5ccccc5)cc4)cc3)sc2c1S(=O)(=O)O ?
inactive

Check the results log: what was the call for Cc1ccc2nc(-c3ccc4nc(-c5ccc(NC(=O)c6cccc7ccccc67)cc5)sc4c3)sc2c1S(=O)(=O)O ?
active

Check the results log: what was the call for Cc1ccc2nc(-c3ccc4nc(-c5ccc(NC(=O)c6cc(C(F)(F)F)ccc6F)cc5)sc4c3)sc2c1S(=O)(=O)O ?
active
